System: KATO III (FGFR2 amp)
Test: In vitro growth inhibition of KATO III tumor cells (MTT/CCK8)
Type: cell-based, Human
Details: Homo sapiens, KATO III; in vitro growth inhibition (or induction of apoptosis), cells cultured 3 to 5 days, MTT (CCK8); read-out: IC50 KATO III (FGFR2 amp)
pIC50: −log10 of the molar value.
Measured pIC50 by item

Would you please look over these solved cases?
Summary line: CC(C)(C)c1cc(NC(=O)Nc2ccc(Oc3ccnc4c(C(F)(F)F)cccc34)cc2Cl)no1 [Compound 114] , KATO III (FGFR2 amp), reported pIC50 = < 6.00

Summary line: CCN1CCN(c2ccc(Nc3cc(NC(=O)Nc4ccc(Oc5ccnc6cc(OC)c(C(N)=O)cc56)c(Cl)c4Cl)ncn3)cc2)CC1 [Compound 71] , KATO III (FGFR2 amp), reported pIC50 = < 6.00

--- query ---
Summary line: COc1cc2nccc(Oc3ccc(NC(=O)Nc4cc(C(C)(C)C)on4)c(N4CCN(C)CC4)c3)c2cc1C(N)=O [Compound 10] , KATO III (FGFR2 amp), reported pIC50 = < 6.00

---

Test system: H1581 (FGFR1 amp)
Assay: In vitro growth inhibition of H1581 tumor cells (MTT/CCK8)
Type: cell-based, Human
Conditions: Homo sapiens, NCI-H1581; in vitro growth inhibition (or induction of apoptosis), cells cultured 3 to 5 days, MTT (CCK8); read-out: IC50 H1581 (FGFR1 amp)
Assay endpoint: IC50

Would you please look over these solved cases?
Sure, the documented IC50 for CC(C)(C)c1cc(NC(=O)Nc2ccc(Oc3cc(C(F)(F)F)nc4ccccc34)cc2Cl)no1 is > 1000 nM

Sure, the documented IC50 for CNC(=O)c1cc2c(Oc3ccc(NC(=O)N4CCN(C)CC4)c(Cl)c3Cl)ccnc2cc1OCCOC is > 1000 nM

Others:
Sure, the documented IC50 for CC(C)(C)c1cc(NC(=O)Nc2ccc(Oc3ccnc4c(C(F)(F)F)cccc34)cc2Cl)no1 is > 1000 nM

---

Test system: H1581 (FGFR1 amp)
Experiment: In vitro growth inhibition of H1581 tumor cells (MTT/CCK8)
Type: cell-based, Human
Conditions: Homo sapiens, NCI-H1581; in vitro growth inhibition (or induction of apoptosis), cells cultured 3 to 5 days, MTT (CCK8); read-out: IC50 H1581 (FGFR1 amp)
Assay endpoint: IC50 (nM)

Would you please look over these solved cases?
Summary line: CNC(=O)c1cc2c(Oc3ccc(NC(=O)Nc4cc(C(C)(C)C)on4)c(Cl)c3)ccnc2cc1OC [Compound 14] , H1581 (FGFR1 amp), reported IC50 = 10.5

Summary line: COc1cc2nccc(Oc3ccc(NC(=O)Nc4cc(C(C)(C)C)on4)cc3F)c2cc1C(N)=O [Compound 9] , H1581 (FGFR1 amp), reported IC50 = 9.59

[1] COc1cc2nccc(Oc3ccc(NC(=O)Nc4cc(C(C)(C)C)nn4C)c(C)c3C)c2cc1C(N)=O [Compound 110]
[2] COCCOc1cc2nccc(Oc3ccc(NC(=O)Nc4cc(C(C)(C)C)nn4C4CC4)cc3F)c2cc1NC(C)=O [Compound 134]
Task: Consider entries 1 and 2 . Which has the numerically lower IC50? Refer to your chosen item by its label in the answer.
Output: 1
(1: 8.36 nM, 2: 12.4 nM)
